assay: STM_H9_NormalizedViability: Cytotoxicity Assessment at 120 hours in the Stemina devTOX quickPredict H9 human embryonic stem cell (hESC)-based Assay (AID 2283784)
Records with an inconclusive call do not appear. Calls of active or inactive are those of the source. The calls were made as follows: active = hit-call score of the fitted dose curve at least 0.9, where 1 is the maximum; inconclusive = response in the unintended direction; inactive = score below 0.9.
Hi! Could you answer with just one of these? active, inactive

Recorded results for 6 compounds are shown here.
RECORD SMILES | ASSIGNED CLASS
COc1cc2c(c(OC)c1OC)-c1ccc(OC)c(=O)cc1[C@@H](NC(C)=O)CC2 | active
CCCCCCCCCC | inactive
O=C1CN(N=Cc2ccc([N+](=O)[O-])o2)C(=O)N1 | active
O=S1(=O)CCCO1 | inactive
Cn1cc[nH]c1=S | inactive
O=c1[nH]cnc2c1ncn2[C@H]1CC[C@@H](CO)O1 | inactive

# evaluate next
# lookup: test call for Cc1ncc([C@@H](CCCCCCc2ccc3c(n2)NCCC3)CC(=O)O)cn1
inactive
